target or system: UniProt P14600
assay name: […]
pIC50: −log10 of the molar value.
readout kind: pIC50

{"molecule smiles": "C[C@@H](O[C@H]1CCCN[C@H]1c1ccccc1)c1cc(C(F)(F)F)cc(C(F)(F)F)c1", "target or system": "UniProt P14600", "readout kind": "pIC50", "measured result": 9.82}
{"molecule smiles": "C[C@H](O[C@H]1CCCN[C@H]1c1ccccc1)c1cc(Cl)cc(Cl)c1", "target or system": "UniProt P14600", "readout kind": "pIC50", "measured result": 7.07}
{"molecule smiles": "C[C@H](O[C@H]1CCCN[C@H]1c1ccccc1)c1cc(C(F)(F)F)cc(C(F)(F)F)c1", "target or system": "UniProt P14600", "readout kind": "pIC50", "measured result": 7.06}
{"molecule smiles": "FC(F)(F)c1cc(CO[C@H]2CCCN(Cc3nc[nH]n3)[C@H]2c2ccccc2)cc(C(F)(F)F)c1", "target or system": "UniProt P14600", "readout kind": "pIC50", "measured result": 9.74}

----------
target or system: Substance-P receptor (Rattus norvegicus)
Sequence (P14600 whole entry): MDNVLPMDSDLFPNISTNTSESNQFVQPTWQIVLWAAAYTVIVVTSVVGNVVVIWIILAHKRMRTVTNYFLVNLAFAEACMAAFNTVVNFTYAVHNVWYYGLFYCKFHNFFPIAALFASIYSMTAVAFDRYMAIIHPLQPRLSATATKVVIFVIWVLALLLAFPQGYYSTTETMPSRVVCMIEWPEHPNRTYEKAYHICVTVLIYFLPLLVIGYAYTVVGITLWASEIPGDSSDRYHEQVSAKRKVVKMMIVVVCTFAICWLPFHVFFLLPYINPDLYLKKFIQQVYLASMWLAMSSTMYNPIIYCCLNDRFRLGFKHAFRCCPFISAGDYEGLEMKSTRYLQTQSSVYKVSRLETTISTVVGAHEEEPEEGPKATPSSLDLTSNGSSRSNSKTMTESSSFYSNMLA
assay name: […]
pIC50: −log10 of the molar value.
Measured pIC50 accompanies every entry in the list below.

{"molecule smiles": "C[C@@H](O[C@H]1CCCN(Cc2n[nH]c(O)n2)[C@H]1c1ccccc1)c1cc(C(F)(F)F)cc(C(F)(F)F)c1", "qualifier sign": "=", "pIC50": 9.80}
{"molecule smiles": "FC(F)(F)c1cc(CO[C@H]2CCCN[C@H]2c2ccccc2)cc(C(F)(F)F)c1", "qualifier sign": "=", "pIC50": 9.10}
{"molecule smiles": "c1ccc(CO[C@H]2CCCN[C@H]2c2ccccc2)cc1", "qualifier sign": "=", "pIC50": 6.80}
{"molecule smiles": "C[C@H](O[C@H]1CCCN(Cc2n[nH]c(O)n2)[C@H]1c1ccccc1)c1cc(Cl)cc(Cl)c1", "qualifier sign": "=", "pIC50": 7.60}
{"molecule smiles": "C[C@@H](O[C@H]1CCCN[C@H]1c1ccccc1)c1cc(Cl)cc(Cl)c1", "qualifier sign": "=", "pIC50": 9.04}
{"molecule smiles": "C[C@@H](O[C@H]1CCCN[C@H]1c1ccccc1)c1ccccc1", "qualifier sign": "=", "pIC50": 7.07}
{"molecule smiles": "C[C@@H](O[C@H]1CCCN(Cc2nc[nH]n2)[C@H]1c1ccccc1)c1cc(C(F)(F)F)cc(C(F)(F)F)c1", "qualifier sign": "=", "pIC50": 9.80}
{"molecule smiles": "C[C@@H](O[C@H]1CCCN(Cc2n[nH]c(O)n2)[C@H]1c1ccccc1)c1cc(Cl)cc(Cl)c1", "qualifier sign": "=", "pIC50": 10.05}
{"molecule smiles": "C[C@@H](O[C@H]1CCCN(Cc2n[nH]c(=O)[nH]2)[C@H]1c1ccccc1)c1ccccc1", "qualifier sign": "=", "pIC50": 8.23}
{"molecule smiles": "C[C@H](O[C@H]1CCCN[C@H]1c1ccccc1)c1ccccc1", "qualifier sign": "<", "pIC50": 5.00}
